Origin of values: paper PMC10897480

- TGT: TRPV2 (Rattus norvegicus, UniProt Q9WUD2, E609Q)
- Construct: rat TRPV2 expressed in HEK293T cells
- Sequence (Q9WUD2 whole entry E609Q): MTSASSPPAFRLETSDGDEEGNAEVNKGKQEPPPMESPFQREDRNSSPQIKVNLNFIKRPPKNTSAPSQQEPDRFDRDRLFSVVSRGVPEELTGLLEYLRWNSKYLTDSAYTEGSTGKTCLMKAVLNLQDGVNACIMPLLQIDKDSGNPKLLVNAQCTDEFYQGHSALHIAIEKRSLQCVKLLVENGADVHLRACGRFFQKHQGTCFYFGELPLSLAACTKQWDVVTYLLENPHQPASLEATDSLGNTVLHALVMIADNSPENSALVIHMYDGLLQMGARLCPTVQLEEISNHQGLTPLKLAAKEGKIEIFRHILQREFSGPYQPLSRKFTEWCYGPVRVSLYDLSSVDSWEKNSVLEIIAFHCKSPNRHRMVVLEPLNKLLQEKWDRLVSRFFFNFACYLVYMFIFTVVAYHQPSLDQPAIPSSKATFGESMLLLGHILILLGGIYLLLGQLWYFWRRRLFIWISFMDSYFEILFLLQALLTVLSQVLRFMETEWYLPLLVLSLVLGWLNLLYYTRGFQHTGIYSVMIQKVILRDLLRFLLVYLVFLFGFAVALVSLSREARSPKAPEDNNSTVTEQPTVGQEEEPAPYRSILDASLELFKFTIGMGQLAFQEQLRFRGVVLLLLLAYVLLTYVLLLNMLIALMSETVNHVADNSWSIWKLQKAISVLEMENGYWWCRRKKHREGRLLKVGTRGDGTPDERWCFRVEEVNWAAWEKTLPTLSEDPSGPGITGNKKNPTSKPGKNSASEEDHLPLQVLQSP
- EXPERIMENT: whole-cell patch clamp, inhibition of 2-APB-induced currents
MEASURED ENDPOINT: pIC50
Value format note: pIC50 is -log10 of concentration (mol/L); just state the number.

Quote pIC50 reported for N.N.N.N.N.N.N.N.N.N.N.N.N.N.[Cl-].[Cl-].[Cl-].[Cl-].[Cl-].[Cl-].[O-2].[O-2].[Ru+3].[Ru+3].[Ru+4] please.
3.83

====

- TGT: TRPV5 (Oryctolagus cuniculus, UniProt Q9XSM3)
- Construct: wild-type rabbit TRPV5, C-terminal 1D4 tag, in nanodiscs
- Sequence (Q9XSM3 whole entry): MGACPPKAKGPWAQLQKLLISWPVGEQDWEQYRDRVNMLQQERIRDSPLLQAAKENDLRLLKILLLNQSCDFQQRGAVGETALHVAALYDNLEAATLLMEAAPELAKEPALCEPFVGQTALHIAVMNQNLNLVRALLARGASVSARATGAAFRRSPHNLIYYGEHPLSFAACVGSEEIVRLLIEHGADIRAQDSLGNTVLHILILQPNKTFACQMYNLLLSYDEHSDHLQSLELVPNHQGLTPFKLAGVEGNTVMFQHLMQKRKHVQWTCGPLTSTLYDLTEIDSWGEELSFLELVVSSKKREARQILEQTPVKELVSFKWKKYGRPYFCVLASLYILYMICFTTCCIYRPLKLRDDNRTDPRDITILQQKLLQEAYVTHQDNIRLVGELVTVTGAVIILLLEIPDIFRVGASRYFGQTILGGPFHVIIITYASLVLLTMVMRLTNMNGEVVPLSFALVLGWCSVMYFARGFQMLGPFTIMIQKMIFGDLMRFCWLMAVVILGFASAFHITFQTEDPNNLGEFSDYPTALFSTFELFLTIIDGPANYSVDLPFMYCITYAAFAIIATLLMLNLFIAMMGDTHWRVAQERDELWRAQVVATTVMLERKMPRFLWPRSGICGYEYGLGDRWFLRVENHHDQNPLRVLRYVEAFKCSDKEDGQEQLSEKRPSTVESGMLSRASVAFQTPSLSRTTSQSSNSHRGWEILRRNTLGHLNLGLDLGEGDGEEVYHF
- EXPERIMENT: cryo-EM structures (8FFQ with PI([…])P2 added, […] Å; 8FFN without, […] Å); IC50 from whole-cell patch clamp in HEK293 cells
MEASURED ENDPOINT: pIC50
Value format note: pIC50 is -log10 of concentration (mol/L); just state the number.

Quote pIC50 reported for N.N.N.N.N.N.N.N.N.N.N.N.N.N.[Cl-].[Cl-].[Cl-].[Cl-].[Cl-].[Cl-].[O-2].[O-2].[Ru+3].[Ru+3].[Ru+4] [RR, ruthenium red] please.
7.86

====

- TGT: TRPV2 (Rattus norvegicus, UniProt Q9WUD2, M607I)
- Construct: rat TRPV2 expressed in HEK293T cells
- Sequence (Q9WUD2 whole entry M607I): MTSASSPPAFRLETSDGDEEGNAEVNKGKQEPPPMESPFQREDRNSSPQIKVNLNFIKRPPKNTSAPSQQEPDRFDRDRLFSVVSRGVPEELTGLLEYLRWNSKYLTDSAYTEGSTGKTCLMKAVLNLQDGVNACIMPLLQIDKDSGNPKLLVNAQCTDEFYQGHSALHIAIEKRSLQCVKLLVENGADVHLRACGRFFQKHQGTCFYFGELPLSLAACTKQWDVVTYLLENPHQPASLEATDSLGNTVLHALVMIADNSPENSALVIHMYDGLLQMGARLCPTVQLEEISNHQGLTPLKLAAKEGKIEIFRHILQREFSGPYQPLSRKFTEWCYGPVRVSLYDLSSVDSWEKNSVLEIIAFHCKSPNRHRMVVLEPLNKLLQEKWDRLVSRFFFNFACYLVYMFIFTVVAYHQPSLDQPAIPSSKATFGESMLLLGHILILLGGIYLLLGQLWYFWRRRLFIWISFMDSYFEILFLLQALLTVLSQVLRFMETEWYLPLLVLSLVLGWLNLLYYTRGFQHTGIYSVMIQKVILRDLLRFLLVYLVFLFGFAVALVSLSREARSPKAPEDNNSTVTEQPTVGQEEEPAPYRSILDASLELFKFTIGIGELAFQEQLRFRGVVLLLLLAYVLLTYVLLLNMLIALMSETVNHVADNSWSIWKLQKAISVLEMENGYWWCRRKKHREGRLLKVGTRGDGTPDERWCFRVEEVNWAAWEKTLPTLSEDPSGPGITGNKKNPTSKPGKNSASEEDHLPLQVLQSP
- EXPERIMENT: whole-cell patch clamp, inhibition of 2-APB-induced currents
MEASURED ENDPOINT: pIC50
Value format note: pIC50 is -log10 of concentration (mol/L); just state the number.

Quote pIC50 reported for N.N.N.N.N.N.N.N.N.N.N.N.N.N.[Cl-].[Cl-].[Cl-].[Cl-].[Cl-].[Cl-].[O-2].[O-2].[Ru+3].[Ru+3].[Ru+4] [RR, ruthenium red] please.
4.54
